The reported measurements were obtained from patent US20130330324A1.

Target: Human HER3, endogenous, on human cancer cell lines (human, UniProt P21860 20-1342)
Assay: cell-based or functional assay
value_type: MCF7 pHER3 % inhibition

INSERT INTO assay_data (binder, obs_value) VALUES
  ('MOR12610 (antibody, human IgG1, kappa, V domains shown, tested as IgG) VH: QVQLVESGGGLVQPGGSLRLSCAASGFTFSSYAMSWVRQAPGKGLEWVSGTGPYGGTYYPDSVKGRFTISRDNSKNTLYLQMNSLRAEDTAVYYCARWGDEGFDIWGQGTLVTVSS VL: DIQMTQSPSSLSASVGDRVTITCRASQGISNWLAWYQQKPGKAPKLLIYGASSLQSGVPSRFSGSGSGTDFTLTISSLQPEDFAVYYCQQYSSFPTTFGQGTKVEIKR', '84%'),
  ('MOR09824 (antibody, human IgG1, kappa, V domains shown, tested as IgG) VH: QVQLVESGGGLVQPGGSLRLSCAASGFTFSSYAMSWVRQAPGKGLEWVSVISAWGHVKYYADSVKGRFTISRDNSKNTLYLQMNSLRAEDTAVYYCARWGDEGFDIWGQGTLVTVSS VL: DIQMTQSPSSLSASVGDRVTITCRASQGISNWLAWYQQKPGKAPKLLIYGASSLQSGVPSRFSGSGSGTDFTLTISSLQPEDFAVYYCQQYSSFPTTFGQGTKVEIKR', '91%');
